Source of measurements: PubChem BioAssay AID1963871

Test system: KRAS-mutant PDC multicell tumor spheroid viability;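 also: viability read after seven days of drug exposure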
protocolDetails: Anticancer human tumor 521955-158-R2-J5-PDC patient-derived pancreatic carcinoma cell line growth inhibition [KRAS2]
experimentalContext: second compound 0.1 µM; first compound 0.1 µM; hits give low values
Please respond with Met when measured viability, T/C is strictly beneath 80%, and with Not met in all other cases.

Solved entries (count: 2):
- molecule: "COC(=O)c1ccc2c(C(=Nc3ccc(N(C)C(=O)CN4CCN(C)CC4)cc3)c3ccccc3)c(O)[nH]c2c1 + C=CC(=O)N1CCN(c2nc(=O)n(-c3c(C)ccnc3C(C)C)c3nc(-c4c(O)cccc4F)c(F)cc23)C(C)C1"
  answerLabel: "Not met"
- molecule: "O=C(c1cc(Cc2n[nH]c(=O)c3ccccc23)ccc1F)N1CCN(C(=O)C2CC2)CC1 + CC1OCC2(CCN(c3cnc(Sc4ccnc(N)c4Cl)c(N)n3)CC2)C1N"
  answerLabel: "Met"

Take the molecule CCNC(=O)CC1N=C(c2ccc(Cl)cc2)c2cc(OC)ccc2-n2c(C)nnc21 (stereo not given) + CNCc1ccccc1-c1csc(C(C)Nc2nc(C)nc3cc(OC)c(OC)cc23)c1 and say whether its viability, T/C is less than 80%.
Not met

Threshold test, viability, T/C < 80%: CC1COCCN1c1cc(-c2ccnn2C)c2ccnc(-c3ccn[nH]3)c2n1 (stereo not given) + COc1cc2nc(C)nc(NC(C)c3cc(N)cc(C(F)(F)F)c3)c2cc1OC1CCOC1
Met

I wonder whether COc1cc2nccc(Oc3ccc(NC(=O)C4(C(=O)Nc5ccc(F)cc5)CC4)cc3)c2cc1OC + CNCc1ccccc1-c1csc(C(C)Nc2nc(C)nc3cc(OC)c(OC)cc23)c1 has viability, T/C below 80%. Can you tell?
Not met

Lab note: confirm whether the reported viability, T/C for this molecule is below 80%, equality not counting. molecule: COc1cc2nccc(Oc3ccc(NC(=O)C4(C(=O)Nc5ccc(F)cc5)CC4)cc3)c2cc1OC + CC1OCC2(CCN(c3cnc(Sc4ccnc(N)c4Cl)c(N)n3)CC2)C1N
Not met

# strict comparison: is reported viability, T/C < 80%? input = Cn1nccc1Nc1nccc(-c2cc3c(s2)C(C)(C)N(CCN2CCOCC2)C3=O)n1 + CNCc1ccccc1-c1csc(C(C)Nc2nc(C)nc3cc(OC)c(OC)cc23)c1
Not met

I wonder whether CC(C)NCC(C(=O)N1CCN(c2ncnc3c2C(C)CC3O)CC1)c1ccc(Cl)cc1 (stereo not given) + COc1cc2nc(C)nc(NC(C)c3cc(N)cc(C(F)(F)F)c3)c2cc1OC1CCOC1 has viability, T/C below 80%. Can you tell?
Not met

Take the molecule CC(C)NCC(C(=O)N1CCN(c2ncnc3c2C(C)CC3O)CC1)c1ccc(Cl)cc1 (stereo not given) + C=CC(=O)N1CCN(c2nc(=O)n(-c3c(C)ccnc3C(C)C)c3nc(-c4c(O)cccc4F)c(F)cc23)C(C)C1 and say whether its viability, T/C is less than 80%.
Not met

Criterion: viability, T/C strictly below 80%. Is it met by CC1(C)CCC(CN2CCN(c3ccc(C(=O)NS(=O)(=O)c4ccc(NCC5CCOCC5)c([N+](=O)[O-])c4)c(Oc4cnc5[nH]ccc5c4)c3)CC2)=C(c2ccc(Cl)cc2)C1 + CC1OCC2(CCN(c3cnc(Sc4ccnc(N)c4Cl)c(N)n3)CC2)C1N ?
Met

Strictly below 80% in viability, T/C? CCN1CCN(Cc2ccc(Nc3ncc(F)c(-c4cc(F)c5nc(C)n(C(C)C)c5c4)n3)nc2)CC1 + C=CC(=O)N1CCN(c2nc(OCC3CCCN3C)nc3c2CCN(c2cccc4cccc(C)c24)C3)CC1CC#N
Not met

viability, T/C under 80%? Item: COc1cc(Nc2ncc3c(n2)-c2ccc(Cl)cc2C(c2c(F)cccc2OC)=NC3)ccc1C(=O)O + COc1cc2nc(C)nc(NC(C)c3cc(N)cc(C(F)(F)F)c3)c2cc1OC1CCOC1
Met

Lab note: viability, T/C threshold 80%. Does this molecule come in strictly under it? CN(C)C/C=C/C(=O)Nc1cc2c(Nc3ccc(F)c(Cl)c3)ncnc2cc1O[C@H]1CCOC1 + CNCc1ccccc1-c1csc(C(C)Nc2nc(C)nc3cc(OC)c(OC)cc23)c1
Met

Does the reported viability, T/C of COc1cc(Nc2ncc3c(n2)-c2ccc(Cl)cc2C(c2c(F)cccc2OC)=NC3)ccc1C(=O)O + C=CC(=O)N1CCN(c2nc(=O)n(-c3c(C)ccnc3C(C)C)c3nc(-c4c(O)cccc4F)c(F)cc23)C(C)C1 stay below 80%?
Met
